# System: Hh pathway (endogenous Gli1 mRNA levels), ASZ-001 cells
# experiment: cells
# testParameters: Mus musculus, ASZ001, 48 h, read-out: IC50 (Hh pathway inhibition, Gli1 mRNA), ASZ-001 cells, 48 h incubation, Mean ± SEM
Assign IC50 to each entry below.

Illustrative cases are given below, each with its answer.
compound	assayTarget	recordedValue
C[C@@]1(c2ccc(Cl)cc2Cl)OC[C@@H](COc2ccc(N3CCN(c4ccc(NC(=O)c5ccncc5)cc4)CC3)cc2)O1 [Compound 14]	Hh pathway (endogenous Gli1 mRNA levels), ASZ-001 cells	> 10 µM
C[C@]1(c2ccc(Cl)cc2Cl)OC[C@@H](COc2ccc(N3CCN(c4ccc(NC(=O)c5ccc6ccccc6c5)cc4)CC3)cc2)O1 [Compound 16]	Hh pathway (endogenous Gli1 mRNA levels), ASZ-001 cells	> 10 µM
C[C@@]1(c2ccc(Cl)cc2Cl)OC[C@@H](COc2ccc(N3CCN(c4ccc(NC(=O)c5ccccc5)cc4)CC3)cc2)O1 [Compound 10]	Hh pathway (endogenous Gli1 mRNA levels), ASZ-001 cells	> 10 µM
C[C@@]1(c2ccc(Cl)cc2Cl)OC[C@@H](COc2ccc(N3CCN(c4ccc(NC(=O)c5ccc6ccccc6c5)cc4)CC3)cc2)O1 [Compound 11]	Hh pathway (endogenous Gli1 mRNA levels), ASZ-001 cells	> 10 µM
C[C@]1(c2ccc(Cl)cc2Cl)OC[C@@H](COc2ccc(N3CCN(c4ccc(NC(=O)c5ccccc5)cc4)CC3)cc2)O1 [Compound 15]	Hh pathway (endogenous Gli1 mRNA levels), ASZ-001 cells	> 10 µM

Let us examine a further case.
Asked: Item C[C@]1(c2ccc(Cl)cc2Cl)OC[C@@H](COc2ccc(N3CCN(c4ccc(NC(=O)c5ccncc5)cc4)CC3)cc2)O1 [Compound 19] has what recorded IC50?
Given back: > 10 µM

* * *

# experiment: Metabolic stability
# testParameters: human, microsomes
parameterMeasured: microsomal CLint

Asked: Item C[C@@]1(c2ccc(Cl)cc2Cl)OC[C@@H](COc2ccc(N3CCN(c4ccc(NC(=O)c5cccc(O)c5)cc4)CC3)cc2)O1 has what recorded microsomal CLint?
Given back: < 3 µL/min/mg

* * *

pIC50: −log10 of the molar value.
# pIC50 measurements, system: CYP3A4 (Homo sapiens, UniProt P08684)
# Sequence (P08684 whole entry): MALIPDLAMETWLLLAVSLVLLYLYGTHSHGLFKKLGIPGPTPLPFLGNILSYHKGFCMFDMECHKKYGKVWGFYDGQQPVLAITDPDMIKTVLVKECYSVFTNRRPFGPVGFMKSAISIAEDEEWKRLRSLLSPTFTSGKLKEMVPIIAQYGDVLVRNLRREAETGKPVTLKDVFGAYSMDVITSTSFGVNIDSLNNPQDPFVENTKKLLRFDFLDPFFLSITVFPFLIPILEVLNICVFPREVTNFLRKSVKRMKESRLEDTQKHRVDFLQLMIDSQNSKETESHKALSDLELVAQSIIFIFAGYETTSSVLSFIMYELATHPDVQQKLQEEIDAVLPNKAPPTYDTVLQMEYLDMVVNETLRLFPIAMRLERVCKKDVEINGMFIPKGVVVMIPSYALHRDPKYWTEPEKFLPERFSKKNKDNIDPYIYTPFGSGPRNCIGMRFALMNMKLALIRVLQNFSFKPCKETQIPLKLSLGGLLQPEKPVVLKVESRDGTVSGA

compound	assayTarget	recordedValue
CC[C@@H](C)n1ncn(-c2ccc(N3CCN(c4ccc(OC[C@@H]5CO[C@@](C)(c6ccc(Cl)cc6Cl)O5)cc4)CC3)cc2)c1=O [Compound 2b]	CYP3A4 (Homo sapiens, UniProt P08684)	5.99
C[C@]1(c2ccc(Cl)cc2Cl)OC[C@@H](COc2ccc(N3CCN(c4ccc(NC(=O)c5cccnc5)cc4)CC3)cc2)O1 [Compound 18]	CYP3A4 (Homo sapiens, UniProt P08684)	< 4.70
C[C@@]1(c2ccc(Cl)cc2Cl)OC[C@@H](COc2ccc(N3CCN(c4ccc(NC(=O)c5cccnc5)cc4)CC3)cc2)O1 [Compound 13]	CYP3A4 (Homo sapiens, UniProt P08684)	< 4.52
C[C@@]1(c2ccc(Cl)cc2Cl)OC[C@@H](COc2ccc(N3CCN(c4ccc(NC(=O)c5cccc(O)c5)cc4)CC3)cc2)O1 [Compound 27]	CYP3A4 (Homo sapiens, UniProt P08684)	< 4.52

Asked: Item CC[C@@H](C)n1ncn(-c2ccc(N3CCN(c4ccc(OC[C@@H]5CO[C@](C)(c6ccc(Cl)cc6Cl)O5)cc4)CC3)cc2)c1=O [Compound 2a] has what recorded pIC50?
Given back: < 4.70

meta.source: paper PMC7450990
